Experiment: yeast display, Sf9 membrane polyspecificity reagent, FACS + sequencing; frameworks hold sequencing errors
measured_quantity: polyreactivity (PSR sort gate)

Observe how each entry below is paired with its result.
| sequence_data | experimental_value |
| --- | --- |
| HVQLVESGGGLGQAGGSLRLSCAASGSIFYVNAIGWYRQAPGKERELVADITWSGGSTYYADSVKGRFTISRDHAQTTVYLQMNSLKPEDTAVYYCAAKVKHWYYPYYYWGQGTQVTVSS | low polyreactivity |
| QVQLVESGGGLVQAGGSLRLSCAASGLTFPYYAMGWYRQAPGKERELVAAISNSGGSTYYADSVKGRFTISRDNAKNTVYLQMNIVKPEDTAVYYCAAYNSYSDYGYWGHGTQVTVSS | high polyreactivity |
| QLQLVESGGGLVQAGGSLRLSCAASGRIFKFNAMGWYRQATGKERELVARITWRGGSPYYADSVKGRFTISRDNAKNTVYLQLNSLKPEDTAVYDCATYTPWTRFYSGTEVGYWGQGTQVTVSS | high polyreactivity |
| QVQLVESGGGLVQAGGSLRLSCAASGRIFPGNAMGWYRQAPGKEREFVAAINTRGGITYYADSVKGRFTISRDNAKNTVYLQMNSLKPEDTAVYYCARTYYPVDGEYDYWGQGTQVTVSS | low polyreactivity |
| QVQLVESGGGLVQAGGSLRLSCADSGFTFRYNAIGSYRQAPGKERELVARISSTGGGTSYADSVKGRFTISRDNAKNTVYLQMNSLKPEDTAVYYCNKRSWGYGRGLPDSDYWGQGTQVTVSS | low polyreactivity |

Q: Name the recorded polyreactivity (PSR sort gate) for "QVQLVESGGGLVQAGGSLRLSCAASGGIFSYNAMGWYRQAPGKERELVAAITSSGSTYYADSVKGRFTISRDNAKNTVYLQMNSLKPEDTAVYYCNAVKRNSWIRGYWGQGTQVTVSS" .
A: low polyreactivity

The values you see were collected from the nanobody polyreactivity screen of Harvey et al. (2022).
